# test.system: T1, SH2 domain of Crkl protein (residues 1-111), H33A variant (UniProt P46109 1-111, H33A)
# T1 construct: Crkl adaptor protein, SH2 domain, residues 1-111, His33 replaced by alanine; Site-directed mutant of m1 (QuikChange); source: E. coli BL21 (DE3), purified (HisTrap nickel column, desalting); not shown: His tag, N-terminal, kept
# T1 sequence (P46109 1-111 H33A): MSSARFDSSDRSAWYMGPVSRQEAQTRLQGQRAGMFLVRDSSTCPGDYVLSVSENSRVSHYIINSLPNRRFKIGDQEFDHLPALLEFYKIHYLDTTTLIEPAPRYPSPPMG
# test.summary: stopped-flow fluorescence kinetics (FRET); dansyl-Pax112-123 constant at 2 μM mixed with Crkl-SH2 2 to 10 μM (pseudo-first-order, kon); koff by displacement of the preincubated 2 µM complex with excess non-dansylated Pax112-123 (30 μM); 283 K; 50 mM TrisHCl pH 8.0, 0.5 M NaCl
# assay.setup: both partners purified
Square brackets hold non-standard residues; d marks the D form. Ends that are not written are not given here. * marks the point of attachment. pY = N[C@@H](Cc1ccc(OP(=O)(O)O)cc1)C(=O)O; Dansyl = CN(C)c1cccc2c(S(=O)(=O)*)cccc12
property.measured: Kd (nM)
The reply should contain only the number, in nM.

Problem: Please look up its Kd: Dansyl-GEEEHV[pY]SFPNK (The dansyl group is the FRET acceptor of Trp14 of the SH2 domain; source: synthetic peptide, bought: GenScript) [dansylated Pax_(112–123) peptide (Dans-GEEEHV-pY-SFPNK)]
Result: 2000

The origin of these recorded values is paper PMC9332313.
